Experiment: Compound 4 pharmacokinetics and tissue exposure, five daily subcutaneous doses, mice
Type: in vivo, C57BL/6 mice
Conditions: male, C57BL/6, mouse, in vivo, sc, 60 mg/kg, Concentration in C57BL/6 Mouse Tissue, Mean
measurement_type: concentration at 24 h (ng/g)
Response body: numeric value in ng/g, unit text excluded.

# lookup: concentration at 24 h of CC1=C(C)C(=O)C(CC[C@](C)(O)CCCCCCCCC(F)(F)F)=C(C)C1=O
212

====

Test system: rotenone-inhibited Complex I
Assay: Complex I-bypass assay ((CI)-bypass assay), high-resolution respirometry O2 consumption
Type: cell-based, human
Settings: Leigh (GM03672) fibroblasts, 0.5 μM rotenone, oxygen consumption rate; read-out: EC50 value, Complex I by-pass activity
pEC50: −log10 of the molar value.
measurement_type: pEC50

Some entries whose results are on file:
COC1=C(OC)C(=O)C(CCCCCCCCCC(F)(F)F)=C(C)C1=O | ~4.86
CC1=C(C)C(=O)C(CC[C@@](C)(O)COCCC[Si](C)(C)C)=C(C)C1=O | ~5.47
CC1=C(C)C(=O)C(CC[C@](C)(O)CCCCCCCCC(F)(F)F)=C(C)C1=O | ~5.06

Note: attention shifts to another entry.
Could you share which pEC50 value was measured for CC1=C(C)C(=O)C(CC[C@@](C)(O)CC/C=C(\C)CCC=C(F)F)=C(C)C1=O ?
~5.39
